Please provide measured koff for the entries that follow.
# System: T1, IL-13Rα1
# T1 construct: also called IL13Ra1
# T1 chain: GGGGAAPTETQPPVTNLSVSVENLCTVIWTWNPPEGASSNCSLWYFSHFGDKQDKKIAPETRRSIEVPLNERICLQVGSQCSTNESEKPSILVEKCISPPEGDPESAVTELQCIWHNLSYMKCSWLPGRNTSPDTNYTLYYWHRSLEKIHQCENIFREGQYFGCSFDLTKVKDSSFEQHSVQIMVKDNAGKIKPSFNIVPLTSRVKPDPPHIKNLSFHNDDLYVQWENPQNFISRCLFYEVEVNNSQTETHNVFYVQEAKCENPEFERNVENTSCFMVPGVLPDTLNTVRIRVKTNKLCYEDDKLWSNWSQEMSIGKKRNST
# Procedure Details: SPR, kinetic (column K-1)
Field: numeric (s⁻¹). Do not append units.

Ask | Read off the recorded koff for A6 (ligand, grouped under 'IL-13Rα1 specific'; also called IL-13 variant A6) cytokine: PGPVPPSTAIRELIEELLNITQNQKAPLCNGSMVWSINLTAGMYCAALESLINVSGCSAIEKTQRMLSGFCPHKVSAGQFSSLHVMKSKIEVAQFVKDLLHHLRALFREGQFN
Reply | 0.0033

Ask | Read off the recorded koff for B2 (ligand, grouped under 'IL-13Rα1 specific'; also called IL-13 variant B2) cytokine: PGPVPPSTALRELIEELINITQNQKAPLCNGSMVWSINLTAGMYCAALESLINVSGCSAIEKTQRMLSGFCPHKVSAGQFSSLHVTGSKIEVAQFVKDLLYHLRALFREGQFN
Reply | 0.0017

Ask | Read off the recorded koff for B4 (ligand, grouped under 'IL-13Rα1 specific'; also called IL-13 variant B4) cytokine: PGPVPPSTALSELIEELINITQNQKAPLCNGSMVWSINLTAGMYCAALESLINVSGCSAIEKTQRMLSGFCPHKVSAGQFSSLHVKGSMIEVAQFVKDLLYHLRTLFREGQFN
Reply | 0.024

Ask | Read off the recorded koff for A5 (ligand, grouped under 'IL-13Rα1 specific'; also called IL-13 variant A5) cytokine: PGPVPPSTALIELIEELINITQNQKAPLCNGSMVWSINLTAGMYCAALESLINVSGCSAIEKTQRMLSGFCPHKVSAGQFSSLHVKGSKIEVAQFVKDLLHHLRALMREGQFN
Reply | 0.0082
